test system: SK-OV-3 ovarian; assay: NCI tumour cell line growth inhibition, 48 h
endpoint name: TGI

Field: example entries. Status: answers known.
[[record]]
molecule = "CC(C)n1c(/C=C/[C@@H](O)C[C@@H](O)CC(=O)O)c(-c2ccc(F)cc2)c2ccccc21"
endpoint_name = "TGI"
endpoint_result = "> 100 µM"

[[record]]
molecule = "CC[C@H](C)[C@H](NC(=O)c1cnccn1)C(=O)N(C)[C@H](C[C@@H](OC(C)=O)c1nc(C(=O)N[C@@H](Cc2ccccc2)C[C@H](C)C(=O)OC)cs1)C(C)C"
endpoint_name = "TGI"
endpoint_result = "> 33.3 µM"

[[record]]
molecule = "Nc1cc(N)c2nc(-c3ccccc3)c(Oc3ccc(F)cc3)nc2c1"
endpoint_name = "TGI"
endpoint_result = "41.4 µM"

[[record]]
molecule = "C=C1C(=O)O[C@@H]2C[C@@]3(C)CC(=O)C=C(C)[C@@H]3C[C@H]12"
endpoint_name = "TGI"
endpoint_result = "> 100 µM"

[[record]]
molecule = "O=[N+]([O-])/C(Cl)=C(/C(Cl)=C(Cl)Cl)N1CCCCC1"
endpoint_name = "TGI"
endpoint_result = "> 100 µM"


Next molecule, TGI to be filled in.
-- ask What value of TGI on SK-OV-3 ovarian does O=c1[nH]c(=O)n(C2CC(O)C(CO)O2)cc1OC/C=C/Cc1ccccc1 (stereo unspecified) have?
-- reply > 100 µM

###

system: DU-145 prostate; assay: NCI tumour cell line growth inhibition, 48 h
Recorded TGI values for a group of compounds are listed next.

[[record]]
compound = "Cn1nc2c(c1N)Cc1c(nn(C)c1N)-c1ccccc1-2"
experimental_target = "DU-145 prostate"
endpoint_name = "TGI"
endpoint_result = "> 100 µM"

[[record]]
compound = "Cc1nc(SCC(N)=O)c2sc(=S)n(-c3ccccc3)c2n1"
experimental_target = "DU-145 prostate"
endpoint_name = "TGI"
endpoint_result = "> 10 µM"

[[record]]
compound = "N#C/C(=C\\c1cccc(Br)c1)c1nc2ccccc2c(=O)[nH]1"
experimental_target = "DU-145 prostate"
endpoint_name = "TGI"
endpoint_result = "> 100 µM"

[[record]]
compound = "COc1cc(-c2oc3ccccc3c(=O)c2O)cc(OC)c1OC"
experimental_target = "DU-145 prostate"
endpoint_name = "TGI"
endpoint_result = "> 100 µM"

[[record]]
compound = "O=C1CC(c2ccccc2Cl)C2(C(=O)NC(=O)NC2=O)C(c2ccccc2Cl)C1 (centres undefined)"
experimental_target = "DU-145 prostate"
endpoint_name = "TGI"
endpoint_result = "> 100 µM"

[[record]]
compound = "O=P(OCc1ccccc1)(OCc1ccccc1)C(O)/C=C/c1ccccc1 (centres undefined)"
experimental_target = "DU-145 prostate"
endpoint_name = "TGI"
endpoint_result = "> 100 µM"

[[record]]
compound = "C[n+]1c(-c2ccc(NC(=O)c3ccc(C(=O)Nc4ccc(-c5cn6ccccc6[n+]5C)cc4)cc3)cc2)cn2ccccc21"
experimental_target = "DU-145 prostate"
endpoint_name = "TGI"
endpoint_result = "> 100 µM"

[[record]]
compound = "COc1ccc(-n2nnc3c(sc4ccccc43)c2=O)cc1"
experimental_target = "DU-145 prostate"
endpoint_name = "TGI"
endpoint_result = "> 100 µM"


Next compound, TGI to be filled in.
-- ask What value of TGI on DU-145 prostate does Cc1cn(CCCCCOC(=O)NC(CCCNC(N)=O)C(=O)O)c(=O)[nH]c1=O (centres undefined) have?
-- reply > 100 µM
